# Method: Oral bioavailability of L-dC via dival-L-dC (HPLC)
# Experimental Context: cynomolgus monkey, urine, 10 mg/kg
Where a name gives a salt, the structure may show the parent alone.
Quantity Name: dose excreted at 72 h (%)
The response must be a number in % with no trailing unit.

Summary for this molecule, CC(C)[C@H](N)C(=O)OC[C@@H]1O[C@H](n2ccc(N)nc2=O)C[C@H]1OC(=O)[C@@H](N)C(C)C [3'5'-dival-L-dC, hydrochloride] : dose excreted at 72 h is 31

====

# Method: in vitro
# Experimental Context: human, bone marrow bfu-e
Quantity Name: pIC50
On this scale, pIC50 is minus log10 of a concentration expressed in M (mol/L).

pIC50 reading for Cc1cn([C@H]2C[C@H](N=[N+]=[N-])[C@@H](CO)O2)c(=O)[nH]c1=O : 6.15

Each recorded value in this set is attributed to patent EP1296995B1.
